Tested on: MRP2
Test: Apparent permeability from basolateral to apical side of MRP2 knockdown human Caco2 cells at 10 uM up to 120 mins by reverse-phase liquid chromatography with triple-quadrupole tandem mass spectrometry analysis
Type: ADME, cell-based, Caco-2
assay endpoint: Papp B→A at 2 h, 10 µM
Respond with the figure and its unit, in that order.

stdin: Input O=C1OC(c2ccc(O)c(S(=O)(=O)[O-])c2)(c2ccc(O)c(S(=O)(=O)[O-])c2)c2c(Br)c(Br)c(Br)c(Br)c21.[Na+].[Na+] [SULFOBROMOPHTHALEIN SODIUM] , output reported Papp B→A at 2 h, 10 µM.
stdout: 0.9 ×10⁻⁶ cm/s

* * *

System: BCRP
Assay: Apparent permeability from basolateral to apical side of BCRP knockdown human Caco2 cells at 10 uM up to 120 mins by reverse-phase liquid chromatography with triple-quadrupole tandem mass spectrometry analysis
Format: ADME, cell-based, Caco-2
assay endpoint: Papp B→A at 2 h, 10 µM
Respond with the figure and its unit, in that order.

Field: example entries. Status: answers known.
CC(C)n1c(/C=C/C(O)CC(O)CC(=O)[O-])c(-c2ccc(F)cc2)c2ccccc21.[Na+] (racemic) [FLUVASTATIN SODIUM] | 57.3 ×10⁻⁶ cm/s
CC(C)c1nc(N(C)S(C)(=O)=O)nc(-c2ccc(F)cc2)c1/C=C/[C@@H](O)C[C@@H](O)CC(=O)[O-].CC(C)c1nc(N(C)S(C)(=O)=O)nc(-c2ccc(F)cc2)c1/C=C/[C@@H](O)C[C@@H](O)CC(=O)[O-].[Ca+2] [ROSUVASTATIN CALCIUM] | 5.8 ×10⁻⁶ cm/s
C[C@]12CC[C@@H]3c4ccc(OS(=O)(=O)O)cc4CC[C@H]3[C@@H]1CCC2=O [ESTRONE SULFURIC ACID] | 10.5 ×10⁻⁶ cm/s

Attention now turns to another entry.
stdin: Input C[C@H]1O[C@@H](O[C@H]2[C@@H](O)C[C@H](O[C@H]3[C@@H](O)C[C@H](O[C@H]4CC[C@@]5(C)[C@H](CC[C@@H]6[C@@H]5C[C@@H](O)[C@]5(C)[C@@H](C7=CC(=O)OC7)CC[C@]65O)C4)O[C@@H]3C)O[C@@H]2C)C[C@H](O)[C@@H]1O [DIGOXIN] , output reported Papp B→A at 2 h, 10 µM.
stdout: 9.46 ×10⁻⁶ cm/s

* * *

Overview of recorded Papp B→A at 2 h, 10 µM for various compounds
Tested on: P-gp
Test: Apparent permeability from basolateral to apical side of P-gp knockdown human Caco2 cells at 10 uM up to 120 mins by reverse-phase liquid chromatography with triple-quadrupole tandem mass spectrometry analysis
Type: ADME, cell-based, Caco-2

Field: example entries. Status: answers known.
C[C@H]1O[C@@H](O[C@H]2[C@@H](O)C[C@H](O[C@H]3[C@@H](O)C[C@H](O[C@H]4CC[C@@]5(C)[C@H](CC[C@@H]6[C@@H]5C[C@@H](O)[C@]5(C)[C@@H](C7=CC(=O)OC7)CC[C@]65O)C4)O[C@@H]3C)O[C@@H]2C)C[C@H](O)[C@@H]1O | 11.8 ×10⁻⁶ cm/s
CC(C)n1c(/C=C/C(O)CC(O)CC(=O)[O-])c(-c2ccc(F)cc2)c2ccccc21.[Na+] (racemic) [FLUVASTATIN SODIUM] | 25.3 ×10⁻⁶ cm/s
C[C@]12CC[C@@H]3c4ccc(OS(=O)(=O)O)cc4CC[C@H]3[C@@H]1CCC2=O | 22.9 ×10⁻⁶ cm/s

Attention now turns to another entry.
stdin: Input "CC(C)c1nc(N(C)S(C)(=O)=O)nc(-c2ccc(F)cc2)c1/C=C/[C@@H](O)C[C@@H](O)CC(=O)[O-].CC(C)c1nc(N(C)S(C)(=O)=O)nc(-c2ccc(F)cc2)c1/C=C/[C@@H](O)C[C@@H](O)CC(=O)[O-].[Ca+2]" , output reported Papp B→A at 2 h, 10 µM.
stdout: 4.6 ×10⁻⁶ cm/s

* * *

Overview of recorded Papp B→A at 2 h, 10 µM for various compounds
System: MRP2
Assay: Apparent permeability from basolateral to apical side of MRP2 knockdown human Caco2 cells at 10 uM up to 120 mins by reverse-phase liquid chromatography with triple-quadrupole tandem mass spectrometry analysis
Assay type: ADME, cell-based, Caco-2
Express your answer in ×10⁻⁶ cm/s, writing the number without its unit.

C[C@]12CC[C@@H]3c4ccc(OS(=O)(=O)O)cc4CC[C@H]3[C@@H]1CCC2=O [ESTRONE SULFURIC ACID] | 33.5

stdin: Input CC(C)c1nc(N(C)S(C)(=O)=O)nc(-c2ccc(F)cc2)c1/C=C/[C@@H](O)C[C@@H](O)CC(=O)[O-].CC(C)c1nc(N(C)S(C)(=O)=O)nc(-c2ccc(F)cc2)c1/C=C/[C@@H](O)C[C@@H](O)CC(=O)[O-].[Ca+2] [ROSUVASTATIN CALCIUM] , output reported Papp B→A at 2 h, 10 µM.
stdout: 6.6

stdin: Input CC(C)n1c(/C=C/C(O)CC(O)CC(=O)[O-])c(-c2ccc(F)cc2)c2ccccc21.[Na+] (racemic) [FLUVASTATIN SODIUM] , output reported Papp B→A at 2 h, 10 µM.
stdout: 48.2

stdin: Input C[C@H]1O[C@@H](O[C@H]2[C@@H](O)C[C@H](O[C@H]3[C@@H](O)C[C@H](O[C@H]4CC[C@@]5(C)[C@H](CC[C@@H]6[C@@H]5C[C@@H](O)[C@]5(C)[C@@H](C7=CC(=O)OC7)CC[C@]65O)C4)O[C@@H]3C)O[C@@H]2C)C[C@H](O)[C@@H]1O [DIGOXIN] , output reported Papp B→A at 2 h, 10 µM.
stdout: 19

Source of measurements: ChEMBL document CHEMBL3525968
